conditions: 423.15 K; Liquid; Closed cell (Static) method
ASSAY ENDPOINT: vapor or sublimation pressure (kPa)

Observe how each entry below is paired with its result.
* CCCCCC(=O)OCC [ethyl hexanoate] | 62.32
* CCCCCCCCCCCCCC [tetradecane] | 4.543

[A] CCCCCCCCCC(=O)OCC [ethyl decanoate]
[B] CCCCCCCCCCCCCC(=O)OCC [ethyl tetradecanoate]
Request: Rank A against B by their vapor or sublimation pressure values and give the higher one. Use the label to indicate which entry you chose.
Result: A
(A: 5.726 kPa, B: 0.5712 kPa)

* * *

settings: 443.15 K; Liquid; Closed cell (Static) method
ASSAY ENDPOINT: vapor or sublimation pressure (kPa)

Here is how some compounds turned out for vapor or sublimation pressure.
* CCCCCCCCCCCCCC(=O)OCC [ethyl tetradecanoate] | 1.443
* CCCCCCCCCCCCCC | 9.627

[a] CCCCCCCCCC(=O)OCC [ethyl decanoate]
[b] CCCCCC(=O)OCC [ethyl hexanoate]
Request: # argmax over vapor or sublimation pressure for candidates a and b Use the label to indicate which entry you chose.
Result: b
(b: 108.02 kPa, a: 11.99 kPa)
